Task for the reader: assign each of the following binders its reported Kd.
Biological target: T1, EsCas13d, nuclease-dead (Eubacterium siraeum, UniProt B0MS50, R295A;H300A;R849A;H854A)
T1 sequence: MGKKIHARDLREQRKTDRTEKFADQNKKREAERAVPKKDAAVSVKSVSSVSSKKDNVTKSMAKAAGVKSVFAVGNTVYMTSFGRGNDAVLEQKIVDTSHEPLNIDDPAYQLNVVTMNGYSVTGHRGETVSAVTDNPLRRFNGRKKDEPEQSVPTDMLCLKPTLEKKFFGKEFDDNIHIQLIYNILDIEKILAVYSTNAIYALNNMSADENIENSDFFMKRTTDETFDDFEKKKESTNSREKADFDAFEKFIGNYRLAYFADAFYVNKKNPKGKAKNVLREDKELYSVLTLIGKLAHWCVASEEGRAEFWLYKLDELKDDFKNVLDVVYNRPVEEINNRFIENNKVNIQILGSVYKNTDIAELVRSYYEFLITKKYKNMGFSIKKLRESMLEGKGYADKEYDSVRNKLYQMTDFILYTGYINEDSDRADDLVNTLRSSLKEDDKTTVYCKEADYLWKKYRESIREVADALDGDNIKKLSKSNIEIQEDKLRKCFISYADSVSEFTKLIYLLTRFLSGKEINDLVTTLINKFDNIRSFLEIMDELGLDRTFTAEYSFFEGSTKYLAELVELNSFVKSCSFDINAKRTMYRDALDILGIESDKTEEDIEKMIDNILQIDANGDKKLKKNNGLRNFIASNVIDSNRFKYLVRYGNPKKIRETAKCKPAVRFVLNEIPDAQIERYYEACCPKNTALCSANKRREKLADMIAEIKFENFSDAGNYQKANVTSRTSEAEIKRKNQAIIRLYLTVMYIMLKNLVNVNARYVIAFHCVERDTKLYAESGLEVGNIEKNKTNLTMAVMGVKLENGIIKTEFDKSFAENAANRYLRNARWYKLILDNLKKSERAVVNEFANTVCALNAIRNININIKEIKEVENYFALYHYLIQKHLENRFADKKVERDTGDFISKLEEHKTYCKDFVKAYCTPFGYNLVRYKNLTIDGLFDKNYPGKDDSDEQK
Assay: crRNA (strand 1, pre-loaded); Mg2+; 40 mM Tris-HCl pH 7.5, 150 mM NaCl, 6 mM MgCl2, 1 mM DTT, 0.1% Tween-20, 0.2 mg/ml BSA; 25 C; 10 min per concentration, then washed
Conditions: tags: His6-TwinStrep-SUMO cleaved; N-terminal SNAP kept (SNAP-Surface 488); label: 3' end held by stalled T7 RNA polymerase
Answer in nM, number only, no unit symbol.

Kd recorded for this binder, target 2 MT 5'PFS AUA 3'PFS CGA (mixed) RNA 1: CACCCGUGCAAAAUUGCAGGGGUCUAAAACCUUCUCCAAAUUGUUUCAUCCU RNA 2: GGGAAUGGAUCCACAUCUACGAAUUCAUAAGGAUGAAACAAUUUGGAGAAGCGAAGAUCGGAAGAGCACACGU , is 9.5

Kd recorded for this binder, target 1 insA 3' of 11,insG 3' of 6 (mixed) RNA 1: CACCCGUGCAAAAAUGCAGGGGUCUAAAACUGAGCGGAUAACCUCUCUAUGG RNA 2: GGGAAUGGAUCCACAUCUACGAAUUCGUACCAUAGAGAGGUAUAUCCGGCUCACCGAGAUCGGAAGAGCACACGU , is 15.7

Kd recorded for this binder, target 1 C7U,C22U (mixed) RNA 1: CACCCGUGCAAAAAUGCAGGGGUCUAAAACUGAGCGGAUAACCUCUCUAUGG RNA 2: GGGAAUGGAUCCACAUCUACGAAUUCGUAUCAUAGAGAGGUUAUUCGCUCACCGAGAUCGGAAGAGCACACGU , is 14.2

Kd recorded for this binder, target 3 insC 3' of 11,insC 3' of 5 (mixed) RNA 1: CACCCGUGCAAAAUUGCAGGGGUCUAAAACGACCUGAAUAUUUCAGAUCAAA RNA 2: GGGAAUGGAUCCACAUCUACGAAUUCGUUUUUGAUCUGAAACUAUUCACGGUCUGCAGAUCGGAAGAGCACACGU , is 88
